Item-by-item account of CC50
# Tested on: Zluc cells
# Method Summary: Cytotoxicity evaluation (CellTiter-Blue Cell Viability Assay)
# Type: cell-based, human
# Reported Conditions: read-out: HCV Replicon CC50
Readout Type: CC50

Compound	Readout Type	Meas Value
CCOc1nc(N)nc2c1ncn2[C@@H]1O[C@@H]2COP(=O)(N[C@@H](C)C(=O)OCC(C)C)O[C@H]2[C@@]1(C)F (single isomer, unassigned) [Compound 4 Diastereomer 2]	CC50	> 50 µM
CCOc1nc(N)nc2c1ncn2[C@@H]1O[C@@H]2COP(=O)(NCCC(=O)OC(C)C)O[C@H]2[C@@]1(C)F (single isomer, unassigned) [Compound 2 Diastereomer 2]	CC50	> 50 µM
CCOC(=O)C(C)(C)NP1(=O)OC[C@H]2O[C@@H](n3cnc4c(OCC)nc(N)nc43)[C@](C)(F)[C@@H]2O1 (single isomer, unassigned) [Compound 7 Diastereomer 2]	CC50	> 50 µM
CCOc1nc(N)nc2c1ncn2[C@@H]1O[C@@H]2COP(=O)(N[C@@H](C)C(=O)OC(C)C)O[C@H]2[C@@]1(C)O (single isomer, unassigned) [Compound 5 Diastereomer 2]	CC50	> 50 µM
CCOc1nc(N)nc2c1ncn2[C@@H]1O[C@@H]2COP(=O)(N[C@@H](C)C(=O)OC(C)C)O[C@H]2[C@@]1(C)F (single isomer, unassigned) [Compound 1 Diastereomer 2]	CC50	> 50 µM
CCOc1nc(N)nc2c1ncn2[C@@H]1O[C@@H]2COP(=O)(N[C@@H](CC)COC(=O)C(C)C)O[C@H]2[C@@]1(C)F (single isomer, unassigned) [Compound 8 Diastereomer 2]	CC50	> 50 µM
CCOc1nc(N)nc2c1ncn2[C@@H]1O[C@@H]2COP(=O)(N[C@@H](C)C(=O)OC3CCCC3)O[C@H]2[C@@]1(C)F (single isomer, unassigned) [Compound 10 Diastereomer 2]	CC50	≤ 50 µM
